target: PLK4 (h) (Homo sapiens, UniProt O00444); experiment: PLK-4 human kinase assay (SPA); type: biochemical; conditions: read-out: PLK4 pIC50 (converted)
Sequence (O00444 whole entry): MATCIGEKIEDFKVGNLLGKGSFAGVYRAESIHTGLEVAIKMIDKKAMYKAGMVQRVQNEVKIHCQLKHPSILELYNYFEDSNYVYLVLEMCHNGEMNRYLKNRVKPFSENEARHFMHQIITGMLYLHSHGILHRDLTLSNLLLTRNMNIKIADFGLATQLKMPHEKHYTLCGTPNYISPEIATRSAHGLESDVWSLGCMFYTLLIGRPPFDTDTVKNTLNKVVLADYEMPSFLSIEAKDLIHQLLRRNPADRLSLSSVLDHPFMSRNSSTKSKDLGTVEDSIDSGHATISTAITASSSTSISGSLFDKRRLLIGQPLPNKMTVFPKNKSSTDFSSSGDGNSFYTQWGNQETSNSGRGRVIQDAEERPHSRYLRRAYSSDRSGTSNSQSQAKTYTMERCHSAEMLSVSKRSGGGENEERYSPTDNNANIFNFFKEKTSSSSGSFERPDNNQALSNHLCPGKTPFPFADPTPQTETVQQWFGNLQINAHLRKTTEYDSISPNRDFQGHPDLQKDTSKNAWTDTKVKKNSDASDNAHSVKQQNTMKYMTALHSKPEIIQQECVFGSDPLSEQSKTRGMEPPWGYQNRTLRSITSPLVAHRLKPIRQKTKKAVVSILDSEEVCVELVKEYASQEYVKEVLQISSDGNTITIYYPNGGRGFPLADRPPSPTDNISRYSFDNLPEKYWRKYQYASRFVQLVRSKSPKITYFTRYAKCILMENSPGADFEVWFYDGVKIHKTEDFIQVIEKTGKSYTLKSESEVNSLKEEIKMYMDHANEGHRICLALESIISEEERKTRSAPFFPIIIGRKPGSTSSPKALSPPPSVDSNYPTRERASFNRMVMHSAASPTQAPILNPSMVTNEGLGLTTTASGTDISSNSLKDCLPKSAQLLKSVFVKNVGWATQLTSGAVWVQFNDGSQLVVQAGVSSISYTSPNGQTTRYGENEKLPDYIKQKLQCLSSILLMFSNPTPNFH
EXPERIMENTAL_ENDPOINT: IC50 (µM)
# value in µM; strip the unit string

CN1CCNC(=O)CCCCOc2cccc(c2)N/C=C2\C(=O)Nc3ncnc1c32    2.63
CN1CCCCNc2ncnc3c2/C(=C/Nc2cccc(c2)OCC1=O)C(=O)N3    3.16
CN1CCNC(=O)CCCCCOc2cccc(c2)N/C=C2\C(=O)Nc3ncnc1c32    1.78

Look up IC50: `CN1CCCNc2ncnc3c2/C(=C/Nc2ccc(NS(=O)(=O)c4ccccc4)c(c2)OCCCC1=O)C(=O)N3` 0.224
